# TEST SYSTEM: human TrkA on TF1 erythroleukemic cells (human, UniProt P04629 33-796)
# Sequence (P04629 33-796): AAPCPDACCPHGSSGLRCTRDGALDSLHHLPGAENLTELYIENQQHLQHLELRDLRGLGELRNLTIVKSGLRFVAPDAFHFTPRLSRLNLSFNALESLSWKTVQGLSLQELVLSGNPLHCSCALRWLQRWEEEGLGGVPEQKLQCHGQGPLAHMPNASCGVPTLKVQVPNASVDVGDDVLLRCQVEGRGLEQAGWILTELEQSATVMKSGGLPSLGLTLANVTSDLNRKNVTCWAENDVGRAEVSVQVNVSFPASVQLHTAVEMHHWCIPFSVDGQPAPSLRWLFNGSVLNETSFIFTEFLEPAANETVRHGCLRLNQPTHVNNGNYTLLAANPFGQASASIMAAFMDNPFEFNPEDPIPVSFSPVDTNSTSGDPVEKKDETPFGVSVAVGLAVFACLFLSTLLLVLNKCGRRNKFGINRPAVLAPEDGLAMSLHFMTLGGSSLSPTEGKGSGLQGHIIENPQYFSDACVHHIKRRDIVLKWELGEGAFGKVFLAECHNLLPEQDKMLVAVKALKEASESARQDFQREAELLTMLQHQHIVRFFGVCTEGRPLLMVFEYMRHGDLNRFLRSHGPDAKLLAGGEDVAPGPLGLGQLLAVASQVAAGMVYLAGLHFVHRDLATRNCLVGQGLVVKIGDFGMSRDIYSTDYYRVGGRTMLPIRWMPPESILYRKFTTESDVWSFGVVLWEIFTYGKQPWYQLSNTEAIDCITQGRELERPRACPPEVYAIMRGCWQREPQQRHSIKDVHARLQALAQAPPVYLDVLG
# PROTOCOL DETAILS: cell-based or functional assay
MEASURED ATTRIBUTE: EC50 in TF-1 proliferation assay, protein kept 7 days at 4° C. (µg/mL)
Answers are plain numbers, in µg/mL.

I would be grateful if you could provide EC50 in TF-1 proliferation assay, protein kept 7 days at 4° C. for each of the following entries.
1. NGF K34D/R69A/R100D (ligand) SSSHPIFHRGEFSVCDSVSVWVGDKTTATDIKGDEVMVLGEVNINNSVFKQYFFETKCRDPNPVDSGCAGIDSKHWNSYCTTTHTFVKALTMDGKQAAWDFIRIDTACVCVLSRKAVRRA
2. NGF K34A/R69A (ligand) SSSHPIFHRGEFSVCDSVSVWVGDKTTATDIKGAEVMVLGEVNINNSVFKQYFFETKCRDPNPVDSGCAGIDSKHWNSYCTTTHTFVKALTMDGKQAAWRFIRIDTACVCVLSRKAVRRA
3. NGF K34D/R69A (ligand) SSSHPIFHRGEFSVCDSVSVWVGDKTTATDIKGDEVMVLGEVNINNSVFKQYFFETKCRDPNPVDSGCAGIDSKHWNSYCTTTHTFVKALTMDGKQAAWRFIRIDTACVCVLSRKAVRRA
4. NGF K34D/R100E (ligand) SSSHPIFHRGEFSVCDSVSVWVGDKTTATDIKGDEVMVLGEVNINNSVFKQYFFETKCRDPNPVDSGCRGIDSKHWNSYCTTTHTFVKALTMDGKQAAWEFIRIDTACVCVLSRKAVRRA
5. NGF K34A/R69A/R100E (ligand) SSSHPIFHRGEFSVCDSVSVWVGDKTTATDIKGAEVMVLGEVNINNSVFKQYFFETKCRDPNPVDSGCAGIDSKHWNSYCTTTHTFVKALTMDGKQAAWEFIRIDTACVCVLSRKAVRRA

Result:
0.023
0.00913
0.0123
0.0588
0.689
